# Tested on: apomorphine-induced stereotypy in rats
# PROCEDURE DETAILS: Apomorphine-induced stereotypy in rats (APO)
# Type: in vivo
# CONDITION NOTES: Rattus norvegicus, po; n.d.: found not active at threshold dose 2.5 mg/kg or 10 mg/kg (a); * not soluble, tested orally as a suspension
This section presents compounds with their documented ED50 values.

Worked cases, ED50 given:
>>> result("Cc1nc2c(N3CCOCC3)ccnn2c1-c1cnn(Cc2cccnc2)c1")
"> 10 mg/kg"
>>> result("COCCc1ccc(-c2c(C)nc3c(N4CCOCC4)cc(C(F)(F)F)nn23)cn1")
"> 2.5 mg/kg"
>>> result("FC(F)(F)Cn1cc(-c2c(C3CC3)nc3c(-c4ccncc4)ccnn23)cn1")
"> 2.5 mg/kg"
>>> result("Cc1nc2c(N3CCOCC3)ccnn2c1-c1ccc(N2CCCC2)nc1")
"> 2.5 mg/kg"
>>> result("COCCn1cc(-c2c(C3CC3)nc3c(N4CCOCC4)ccnn23)cn1")
"> 10 mg/kg"
>>> result("CCOCCc1ccc(-c2c(C)nc3c(N4CCOCC4)ccnn23)cn1")
"> 2.5 mg/kg"
>>> result("Cc1nc2c(N3CCOCC3)ccnn2c1-c1cn[nH]c1")
"> 10 mg/kg"
>>> result("COCCc1ccc(-c2c(C3CC3)nc3c(N4CCOCC4)cc(C)nn23)cn1")
"> 2.5 mg/kg"

Shifting focus to the compound that follows.
Consider the compound CCOCc1ccc(-c2c(C)nc3c(N4CCOCC4)ccnn23)cn1 and give its recorded ED50.
> 2.5 mg/kg
